The origin of these recorded values is paper PMC13287468.

Target: T1, RsmE P64W (Pseudomonas protegens, UniProt P0DPC3, P64W)
T1 sequence: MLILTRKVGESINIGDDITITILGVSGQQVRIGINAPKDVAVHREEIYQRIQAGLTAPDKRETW
Experiment: ITC; 50 mM potassium phosphate pH 7.2, 300 mM NaCl, 298 K; 10 uM monomer in the cell
Conditions: tags: C-His6 (kept); chain copies: 2; hairpin; 1 RNA per protein dimer
measured.parameter: Kd (nM)
Please reply with the bare figure in nM and do not write the unit itself.

Sample GGGCCAUCAAGGACGAUGGUCC (ssRNA, T7 transcript (5' triphosphate expected)) [SL2] — what was its Kd? 15.4
